Target: T1, wild-type human CLDN-5 protein (human, UniProt O00501 1-218)
T1 construct: Four-transmembrane tight junction protein expressed by retrovirus on HT-1080 (or MDCKII) cells; also called hCLDN-5; human Claudin-5 protein
T1 sequence: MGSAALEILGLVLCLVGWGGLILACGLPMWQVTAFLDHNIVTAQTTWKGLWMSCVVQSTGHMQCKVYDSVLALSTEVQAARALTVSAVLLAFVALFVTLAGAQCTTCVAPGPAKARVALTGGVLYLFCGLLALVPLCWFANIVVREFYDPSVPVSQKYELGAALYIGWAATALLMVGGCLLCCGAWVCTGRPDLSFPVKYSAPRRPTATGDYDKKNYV
Assay: FACS saturation binding on HT-1080/hCLDN-5, one-site fit; Lot 2
Readout name: Kd (nM)
Reply numerically in nM, unit not repeated.

Look up and report measured Kd for this entry: mouse anti-CLDN-5 antibody M11 (antibody, mouse IgG2b, V domains shown, Hybridoma monoclonal; also called antibody B) VH: QVQLKQSGPGLVQPSQSLSITCTVSGFSLIRYGVHWVRQSPGKGLEWLGVKWSGGSTDYNGAFKSRLSISKDNSKSQVFFKMNSLQADDTAIYYCARGLDGYYVPDVWGTGTSVTVS VL: DIVMTQSHKFMSTSVGDRVSITCKASQDVSTNVAWYQQKPGQSPTLLIYWASTRHTGVPDRFTGSGSGTDYTLTISSVQAEDLALYYCQQHYSTPLTFGAGTKLELRR 9.68

Values were extracted from patent US20200148765A1.
